- TARGET UNDER TEST: human GLP-1 receptor (GLP-1R) (human, UniProt P43220 24-463)
- Sequence (P43220 24-463): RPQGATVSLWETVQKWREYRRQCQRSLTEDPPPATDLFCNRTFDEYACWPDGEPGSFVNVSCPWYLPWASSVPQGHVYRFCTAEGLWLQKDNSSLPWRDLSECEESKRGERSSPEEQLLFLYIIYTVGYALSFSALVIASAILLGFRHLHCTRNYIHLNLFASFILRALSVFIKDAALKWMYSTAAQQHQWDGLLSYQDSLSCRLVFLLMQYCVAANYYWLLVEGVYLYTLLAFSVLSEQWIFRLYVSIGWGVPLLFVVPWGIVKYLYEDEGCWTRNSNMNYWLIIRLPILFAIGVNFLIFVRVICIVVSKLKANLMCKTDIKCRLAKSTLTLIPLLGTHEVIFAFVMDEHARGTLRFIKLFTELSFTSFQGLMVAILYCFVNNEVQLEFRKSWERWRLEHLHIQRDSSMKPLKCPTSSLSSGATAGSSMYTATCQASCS
- EXPERIMENT DESCRIPTION: cell-based or functional assay
Where no end group is shown, it is not given here. [ ]: non-standard residue; d: D form. Formula III = not defined here; Formula II = not defined here; Aib = CC(C)(N)C(=O)O
ENDPOINT: GLP-1R pEC 50

INSERT INTO assay_data (binder, endpoint, result) VALUES
  ('YSHGTFTSDYSKYLDK(Formula III)KYAQEFV[Aib]WLEDEPSSGAPPPS-OH (reading uncertain) [Compound B7]', 'GLP-1R pEC 50', '< 6 pEC50'),
  ('YSHGTFTSDYSKYLDK(Formula II)ARAQEFVKWLEDEPSSGAPPPS-NH2 (reading uncertain) [Compound B43]', 'GLP-1R pEC 50', '< 6 pEC50'),
  ('YSHGTFTSDK(Formula II)SKYLD[Aib]KYAQEFV[Aib]WLEDEPSSGAPPPS-OH (reading uncertain) [Compound B4]', 'GLP-1R pEC 50', '< 6 pEC50'),
  ('YSQGTFTSDK(Formula III)SKYLDAARAQEFVKWLEDEPKSKSPPPS-NH2 (reading uncertain) [Compound B40]', 'GLP-1R pEC 50', '7.2 pEC50'),
  ('YSHGTFTSDYSKYLD[Aib]KSAQEFV[Aib]WLEDEPSSK(Formula III)APPPS-OH (reading uncertain) [Compound B13]', 'GLP-1R pEC 50', '< 6 pEC50'),
  ('YSHGTFTSDYSKYLDK(Formula II)KSAQEFV[Aib]WLEDEPSSGAPPPS-OH (reading uncertain) [Compound B11]', 'GLP-1R pEC 50', '6.3 pEC50'),
  ('YSQGTFTSDYSKYLDAARAQEFVK(Formula II)WLEDEPKSKSPPPS-NH2 (reading uncertain) [Compound B34]', 'GLP-1R pEC 50', '< 6 pEC50'),
  ('YSHGTFTSDYSKYLDSARAQEFVKWLEDEPSSK(Formula III)APPPS-NH2 (reading uncertain) [Compound B45]', 'GLP-1R pEC 50', '< 6 pEC50'),
  ('YSHGTFTSDYSKYLDSARAQEFVKWLEDEPSSK(Formula II)APPPS-NH2 (reading uncertain) [Compound B41]', 'GLP-1R pEC 50', '< 6 pEC50');
